Provenance of the data: ChEMBL document CHEMBL1201862

Readings of GI50 for the listed molecules
Tested on: MCF7
Assay: NCI tumour cell line growth inhibition, 48 h
Activity calls are given as the source filed them. Rule as the data show it: active = GI50 up to about 1.1 µM and inactive = higher.

MOLECULE	EXPERIMENTAL VALUE
Cc1ccc(S(=O)(=O)NC(=O)NC(CCC(N)=O)C(=O)O)cc1 (stereo not given)	> 100 µM (inactive)

GI50 in this record for CS(=O)(=O)OCCCNCCCOS(C)(=O)=O : 679 µM (inactive)

GI50 in this record for C/C(=N\Nc1ccccc1Br)c1cccc(/C(C)=N/Nc2ccccc2Br)n1 : 54.1 µM (inactive)

GI50 in this record for Cc1cc(C)c(/C=C2\C(=O)Nc3ccccc32)[nH]1 : 83.9 µM (inactive)

GI50 in this record for CC1c2cc(c3c(c2O)CN([C@@H](C)C2CCCCC2)CO3)C(C)c2cc(c3c(c2O)CN([C@@H](C)C2CCCCC2)CO3)C(C)c2cc(c3c(c2O)CN([C@@H](C)C2CCCCC2)CO3)C(C)c2cc1c1c(c2O)CN([C@@H](C)C2CCCCC2)CO1 (stereo not given in full) : 1.36 µM (inactive)

GI50 in this record for CCCCC(=O)/C=c1/cc(C)[nH]c2cccc3cnn1c32 : > 100 µM (inactive)

GI50 in this record for Cn1c(=O)c2nc3c(=O)n(C)c(=O)n(CC(N)=O)c3nc2n(C)c1=O : > 100 µM (inactive)

GI50 in this record for Cc1c2ccncc2c(C)c2c1[nH]c1ccccc12 : 0.571 µM (active)

GI50 in this record for CCc1ccc(COC(=O)C2=C(C)NC(C)=C(C(=O)OCc3ccc(CC)cn3)C2C2=COCCO2)nc1 : 19.5 µM (inactive)

---

System: T47D
Assay: NCI tumour cell line growth inhibition, 48 h
Activity calls are given as the source filed them. Rule as the data show it: active = GI50 up to about 1.1 µM and inactive = higher.
Readings of GI50 for the listed compounds

Some entries whose results are on file:
> print(dat)
                                   compound  measured.property   experimental.value
1  O=C1c2ccccc2-n2nnnc2C2CSCN12 (stereo unspecified)               GI50  > 100 µM (inactive)
2             CS(=O)(=O)OCCCNCCCOS(C)(=O)=O               GI50    573 µM (inactive)
3  CC(C)=CCc1c(O)c(CC2=C(O)C(CC=C(C)C)(C(=O)C(C)C)C(O)=C(C)C2=O)c(O)c(C(=O)C(C)C)c1O (stereo unspecified)               GI50   8.45 µM (inactive)
4  Cc1cc2nc3c(C#N)c4c(c(Nc5ccc(Cl)cc5)n3c2cc1C)CCC4               GI50   30.5 µM (inactive)
5  COc1ccc2nc3c([N+](=O)[O-])ccc(NCCN(C)C)c3c(N)c2c1               GI50   1.17 µM (inactive)

GI50 in this record for C=C1c2nc3ccccc3n2C=C(c2ccc(OC)cc2)N1c1ccccc1 : 6.4 µM (inactive)

GI50 in this record for O=C1c2ccccc2-c2nnc(-c3ccccc3)cc21 : 4.48 µM (inactive)

GI50 in this record for O=C1Oc2ccccc2C(=O)/C1=C/NC(=S)Nc1ccccc1 : 5.96 µM (inactive)

GI50 in this record for O=C1O/C(=C/c2ccccc2)C(c2ccccc2)=C1O : 27.2 µM (inactive)

GI50 in this record for Cn1c(=O)c2nc3c(=O)n(C)c(=O)n(CC(N)=O)c3nc2n(C)c1=O : > 100 µM (inactive)

GI50 in this record for Clc1ccc(/C=N/C23CC4CC(CC(C4)C2)C3)c(Cl)c1 : > 10 µM (inactive)

---

Readings of GI50 for the listed molecules
System: RPMI-8226
Test: NCI tumour cell line growth inhibition, 48 h
Activity calls are given as the source filed them. No stated cut-off is given here; in the data, active = GI50 up to about 1.1 µM and inactive = higher.

> print(dat)
                                    molecule    experimental.value
 1        CN(C)c1ccc(/C=C2\Oc3ccccc3C2=O)cc1   > 100 µM (inactive)
 2  N#CC1C(=O)C(=O)N(c2ccccc2)C1=O (stereo unspecified)   > 100 µM (inactive)
 3               N#C/C(=C\c1cccc(O)c1)C(N)=O   > 100 µM (inactive)
 4        OC[P+](CO)(CO)C12CC3CC(CC(C3)C1)C2    21.9 µM (inactive)
 5  CC1=C(C2=C(C)C(=O)c3c(c(C=O)c(O)c(O)c3C(C)C)C2=O)C(=O)c2c(C=O)c(O)c(O)c(C(C)C)c2C1=O [GOSSYPOLONE]    2.29 µM (inactive)
 6            N#Cc1nc(COCCOCc2ccc(F)cc2)oc1N   > 100 µM (inactive)
 7       O=C1O/C(=C/c2ccccc2)C(c2ccccc2)=C1O      28 µM (inactive)
 8  CCCCCCc1cc2cc(-c3csc(-c4ccc(OC)cc4)n3)c(=O)oc2cc1O    33.8 µM (inactive)
 9  COC(=O)C(=O)Nc1cc2c3c(c1)Oc1cccc4c1C3(C)c1c(cccc1O2)O4  > 44.8 µM (inactive)
10  O=C(O)C(Cc1cccs1)NC(=O)C(F)(F)F (stereo unspecified)   > 100 µM (inactive)

Would you kindly look at the next entry?
GI50 in this record for O=C1CN=C(C[N+](=O)[O-])c2ccccc21 : > 100 µM (inactive)

---

System: SNB-75
Test: NCI tumour cell line growth inhibition, 48 h
The source made the active and inactive calls. Cut-off read from the data, not from the text of the source: active = GI50 up to about 1.1 µM and inactive = higher.
MEASURED PROPERTY: GI50

> print(dat)
                                   molecule  measured.property   experimental.value
1        CC12CC3CC(C1)CC(N=[N+]=[N-])(C3)C2               GI50  > 100 µM (inactive)
2  COC(=O)CCC(NC(=S)N/N=C(\C)c1nccs1)C(=O)OC (centres undefined)               GI50   68.2 µM (inactive)
3  COc1ccc(N2C(=O)[C@@H]3[C@H](C2=O)c2[nH]c4ccccc4c2C2CCC(C(C)(C)C)C[C@@H]23)cc1 (some centres undefined)               GI50   15.9 µM (inactive)
4    C=C[C@@](C)(/C=C/c1ccc(O)cc1)CCC=C(C)C               GI50     14 µM (inactive)
5  CCOc1ccc(N/C(=C(/C(Cl)=C(/Cl)Nc2ccccc2)[N+](=O)[O-])n2nnc3ccccc32)cc1               GI50   57.1 µM (inactive)

GI50 in this record for CCOC(=O)/C(SC#N)=C(/N)N1CCCC1 : > 94.8 µM (inactive)

GI50 in this record for NC(=O)c1cc([N+](=O)[O-])cc([N+](=O)[O-])c1 [NITROMIDE] : > 100 µM (inactive)

GI50 in this record for CC(=O)OCCOCn1cnc2c(Cl)nc(Cl)nc21 : 21.5 µM (inactive)

GI50 in this record for CC1=C(C2=C(C)C(=O)c3c(c(C=O)c(O)c(O)c3C(C)C)C2=O)C(=O)c2c(C=O)c(O)c(O)c(C(C)C)c2C1=O : 6.59 µM (inactive)

---

Tested on: CCRF-CEM
Assay: NCI tumour cell line growth inhibition, 48 h
Where a name gives a salt, the structure may show the parent alone. Active and inactive are the calls of the source. Cut-off read from the data, not from the text of the source: active = GI50 up to about 1.1 µM and inactive = higher.
Could you please pick one outcome from this set? active, inactive

These solved cases illustrate the format of a correct answer.
COMPOUND	GROUP LABEL
O=S(=O)(O)c1ccc2cc(/N=N\c3cc(S(=O)(=O)O)c4cccnc4c3O)ccc2c1	inactive
Cn1c(=O)c2nc3c(=O)n(C)c(=O)n(CC(N)=O)c3nc2n(C)c1=O	inactive
O=C1C(Cl)C(c2ccccc2Cl)N1n1cnc2ccccc2c1=O (configuration not stated)	inactive
O=C(C1C(c2ccccc2)N1C(c1ccccc1)c1ccccc1)C1C(c2ccccc2)N1C(c1ccccc1)c1ccccc1 (configuration not stated)	inactive

Asked: # lookup: test call for Nc1ncnc2c1nc(Cl)n2[C@@H]1O[C@@H]2COP(=O)(O)O[C@H]2[C@H]1O
Given back: inactive

Asked: # lookup: test call for Cc1ccc(-c2cc(-c3ccc(Cl)cc3)nc(/N=C3\C(=O)N(CN4CCOCC4)c4ccccc43)n2)cc1
Given back: inactive

Asked: # lookup: test call for COc1ccc2c(=O)oc3c(OC)cc(CCN(C)C)c4c(=O)oc1c2c34
Given back: active

Asked: # lookup: test call for CN(C)/N=N/c1ccc(NC=O)cc1
Given back: inactive

Asked: # lookup: test call for N#C[C-](C#N)[n+]1ccc(Cl)cc1
Given back: inactive

Asked: # lookup: test call for COC(=O)CNS(=O)(=O)c1ccc(-c2c3nc(c(-c4ccc(S(=O)(=O)NCC(=O)OC)cc4)c4ccc([nH]4)c(-c4ccc(S(=O)(=O)NCC(=O)OC)cc4)c4nc(c(-c5ccc(S(=O)(=O)NCC(=O)OC)cc5)c5ccc2[nH]5)C=C4)C=C3)cc1
Given back: inactive

Asked: # lookup: test call for CNC(=S)N/N=C(\C)c1nc2cccnc2[nH]1
Given back: inactive

Asked: # lookup: test call for COc1cc2c(c(OC)c1OC)-c1ccc(SC)c(=O)cc1C(CC(=O)Oc1ccccc1F)C2 (configuration not stated)
Given back: active

Asked: # lookup: test call for O=C1CCCC[C@H]1[C@H]1CCC[C@@H]([C@H]2CCCCC2=O)C1=O
Given back: inactive

Asked: # lookup: test call for Clc1cc2nsnc2c(Cl)n1
Given back: inactive

Asked: # lookup: test call for CC(CN1c2ccccc2Sc2ccccc21)N(C)C (configuration not stated) [PROMETHAZINE HYDROCHLORIDE]
Given back: inactive

Asked: # lookup: test call for O=C1/C(=C\c2cccc(Oc3ccccc3)c2)SC(c2ccccc2)N1c1cc(Cl)ccc1Cl (configuration not stated)
Given back: active

Asked: # lookup: test call for COc1ccc(C(SCCO)(c2ccccc2)c2ccc(OC)cc2)cc1
Given back: inactive
